src = ChEMBL document CHEMBL1201862

- Tested on: MOLT-4
- assayExplanation: NCI tumour cell line growth inhibition, 48 h
Calls of active or inactive are those of the source. No stated cut-off is given here; in the data, active = GI50 up to about 1.1 µM and inactive = higher.
Outcome codes: T for active, F for inactive

compound: Cc1c2cc[n+]([O-])cc2c(C)c2c1[nH]c1ccccc12
label: T
//
compound: C=C1C(=O)OC2C1CC[C@H](C)C13OC(=O)CC1[C@@]23C (stereo partly specified)
label: F
//
compound: CCCCc1ccc(-n2sc3ncccc3c2=O)cc1
label: F
//
compound: Cl/C(=C\C=N\c1ccc(I)cc1)c1ccc2ccccc2c1
label: F
//
compound: C/C(=N/NC(=S)N(C)CCc1ccccn1)c1cnccn1
label: T
//
compound: COc1ccc2c(C)cc(N/N=C/c3ccc(C)s3)nc2c1
label: F
//
compound: CC(C)(CC#N)c1cc(CC(C)(C)c2cc(CC(C)(C)c3cc(C(C)(C)C4(C)OCCO4)no3)no2)no1
label: F
//
compound: CCOC(=O)c1c2c(n(C)c1-c1ccccc1)C(=O)C(C)=CC2=O
label: F
//
compound: COc1cc(/C=C/c2sc3ccccc3[n+]2C)ccc1N(C)C
label: F
//
compound: COc1cc2c(c(OC)c1OC)C(=O)[C@@H](O)[C@H]2NC(N)=O
label: F
//
compound: CC(=O)c1cccc(Nc2c3ccccc3nc3occc23)c1
label: F

====

- Test system: T47D
- assayExplanation: NCI tumour cell line growth inhibition, 48 h
Active and inactive are the calls of the source. Cut-off read from the data, not from the text of the source: active = GI50 up to about 1.1 µM and inactive = higher.
Outcome codes: yes = active, no = inactive

molecule: c1ccc(CCCCNCc2cc(CNCCCCc3ccccc3)cc(CNCCCCc3ccccc3)c2)cc1
label: no
--
molecule: CCN1C(=O)C(=C/C=C/C=C2/N(C)c3ccccc3C2(C)C)C(=O)N(CC)C1=S
label: no
--
molecule: CC1(C)OC(=O)C(C)(C)OC1=O
label: no
--
molecule: COc1cc(C2c3cc4c(cc3OC(N3CCOCC3)C2C)OCO4)cc(OC)c1OC (configuration not stated)
label: yes
--
molecule: O=C(/C=C/c1cccc(Br)c1)N1CCN(CCOC(c2ccccc2)c2ccccc2)CC1
label: no
--
molecule: Clc1ccccc1/C=C/c1nsc(/C=C/c2ccccc2Cl)n1
label: no
--
molecule: C/C(=N\NC(=S)N(C)C)c1nc2cccnc2[nH]1
label: yes
--
molecule: CC(C)(CC#N)c1cc(CC(C)(C)c2cc(CC(C)(C)c3cc(C(C)(C)C4(C)OCCO4)no3)no2)no1
label: no
--
molecule: COc1ccc(/N=C\c2ccc(N(CCC#N)CCC#N)cc2)cc1
label: no
--
molecule: COC1=CC(=O)c2c(O)c3c(c(O)c2C1=O)C[C@](C)(O)C[C@@H]3O
label: no
--
molecule: C=CN1CCN(c2ccccc2)P1(=O)Oc1ccccc1 (configuration not stated)
label: no
--
molecule: Cc1cccc2sc(NC(=O)c3cc([N+](=O)[O-])ccc3Cl)nc12
label: no
--
molecule: CC1=NNC(=O)C1C1CC(c2c[nH]c3ccccc23)=NN(c2ccccc2)C1=O (configuration not stated)
label: no
--
molecule: [O-][n+]1c2ccccc2[n+]([O-])c2cc(Br)ccc21
label: no
--
molecule: Cc1nnc2n1N=C(c1cc(F)c(Cl)cc1Cl)/C(=C/c1ccc3c(c1)OCO3)S2
label: no
--
molecule: O=C1CC2(CCC(O)(c3ccccc3)C(C(=O)c3ccccc3)C2)C(=O)c2ccccc2N1 (configuration not stated)
label: no
--
molecule: N#C/C(=C/NC(=S)c1ccncc1)C(N)=O
label: no
--
molecule: O=C(Nc1ccc(C(F)(F)F)cc1)NC(F)(F)F
label: no
--
molecule: COC[C@@H](/N=C/c1ccc(OC)cc1)C(C)C
label: no
--
molecule: O=[N+]([O-])c1ccc(C2=NOC(c3ccccc3)N2C23CC4CC(CC(C4)C2)C3)cc1 (configuration not stated)
label: no
--
molecule: O=C(/C=C/c1ccsc1)c1ccco1
label: no
--
molecule: N#Cc1c(-c2ccc(Cl)cc2)c2c(n(C3OC(CO)C(O)C(O)C3O)c1=S)CCC2 (configuration not stated)
label: no

====

- System: IGROV-1
- assayExplanation: NCI tumour cell line growth inhibition, 48 h
Active and inactive are the calls of the source. No stated cut-off is given here; in the data, active = GI50 up to about 1.1 µM and inactive = higher.
Outcome codes: yes (active), no (inactive)

compound: CC(=O)C1(O)CC2(c3ccccc3)C(=O)C1(c1ccccc1)C(c1ccccc1)=C2c1ccccc1 (centres undefined)
targetDesc: IGROV-1
label: no

compound: Cc1ccc(S(=O)(=O)N2CCCSCCSCCCN(S(=O)(=O)c3ccc(C)cc3)CC2)cc1
targetDesc: IGROV-1
label: no

compound: C=CC[C@]12C[C@@H](C(=O)OC)N(C(=O)OC)[C@H]1N(S(=O)(=O)c1ccccc1)c1ccccc12
targetDesc: IGROV-1
label: no

compound: O=C1C(Cl)C(c2ccc([N+](=O)[O-])cc2)N1n1cnc2ccccc2c1=O (centres undefined)
targetDesc: IGROV-1
label: no

compound: CCCCCCC(=O)OC[n+]1ccc2c(C)c3[nH]c4ccc(OC)cc4c3c(C)c2c1
targetDesc: IGROV-1
label: yes

compound: c1ccc(CN2CCCN3CCN(CCCN(Cc4ccccc4)CC3)CC2)cc1
targetDesc: IGROV-1
label: no

compound: CCC1(C)NN=c2s/c(=C/c3ccc(OC)cc3)c(=O)n2N1 (centres undefined)
targetDesc: IGROV-1
label: no

compound: NCCCN1c2ccccc2Sc2ccc(Cl)cc21
targetDesc: IGROV-1
label: no

compound: CCOC(=O)NN(C(=O)OCC)C(=C(c1ccccc1)N1CCOCC1)N(NC(=O)OCC)C(=O)OCC
targetDesc: IGROV-1
label: no

====

- System: CCRF-CEM
- assayExplanation: NCI tumour cell line growth inhibition, 48 h
Activity calls are given as the source filed them. No stated cut-off is given here; in the data, active = GI50 up to about 1.1 µM and inactive = higher.

compound: CC(C)(C)C(=C[S+]([O-])/N=C/c1ccccc1)C(C)(C)C (centres undefined)
GI50: 17.8 µM (inactive)
--
compound: CCC1C(C)c2c([nH]c3ccccc23)C2C(=O)N(c3ccccc3)C(=O)C21 (centres undefined)
GI50: 18 µM (inactive)
--
compound: O=[N+]([O-])C(=C1NCCN1)C(Cl)=C(Cl)Cl
GI50: 52.6 µM (inactive)
--
compound: CCOC(=O)c1c2c(n(C)c1-c1ccccc1)C(=O)C(C)=CC2=O
GI50: 2.51 µM (inactive)
--
compound: CC(C)OP(=O)(OC(C)C)C(C(C)C)N(C)/C(N)=N\C1=NC(C(F)(F)F)(C(F)(F)F)N=C(C(C(F)(F)F)C(F)(F)F)O1 (centres undefined)
GI50: 0.664 µM (active)
--
compound: CCCn1c(=O)c2nn3c(=O)n(CCC)c(=O)c3nn2c1=O
GI50: > 100 µM (inactive)
--
compound: Nc1nc(Cl)nc2c1ncn2C1CCC(COP(=O)(O)OP(=O)(O)OP(=O)(O)O)O1 (centres undefined)
GI50: 44.3 µM (inactive)
--
compound: N#Cc1cc(-c2nc3ccc(F)cc3s2)ccc1N
GI50: > 100 µM (inactive)
--
compound: COc1ccc(C2SC(=N)Nc3c2c(C)nn3C(=O)c2ccc(Cl)cc2)cc1OC (centres undefined)
GI50: > 10 µM (inactive)

====

- Test system: CCRF-CEM
- assayExplanation: NCI tumour cell line growth inhibition, 48 h
Active and inactive are the calls of the source. No stated cut-off is given here; in the data, active = GI50 up to about 1.1 µM and inactive = higher.
Outcome codes: active, inactive

compound: NNC(=S)N/N=C(\c1nc2ccc(Cl)cc2nc1O)C(O)c1ccc(Cl)cc1Cl (stereo not given)
targetDesc: CCRF-CEM
label: inactive
--
compound: COc1cccc2c1C(=O)c1c(O)c3c(c(O)c1C2=O)C[C@@](O)(C(=O)CO)C[C@@H]3OC1CC(N2CCOCC2C#N)C(O)C(C)O1 (stereo not given in full)
targetDesc: CCRF-CEM
label: active
--
compound: CSc1ncc2c(C#N)c3ccccn3c(=O)c2n1
targetDesc: CCRF-CEM
label: inactive
--
compound: Cc1c2cc[n+]([O-])cc2c(C)c2c1[nH]c1ccccc12
targetDesc: CCRF-CEM
label: inactive
--
compound: C=CC[C@]12C[C@@H](C(=O)OC)N(C(=O)OC)[C@H]1N(S(=O)(=O)c1ccccc1)c1ccccc12
targetDesc: CCRF-CEM
label: inactive
--
compound: COc1cc(S(=O)(=O)N/N=C/c2cc(Br)c(O)c(OC)c2)c(OC)cc1NC(C)=O
targetDesc: CCRF-CEM
label: inactive
--
compound: CC1=NC2(C(=O)O)C3(C(=O)O)N=C(C)OC3(C(F)(F)F)C2(C(F)(F)F)O1 (stereo not given)
targetDesc: CCRF-CEM
label: inactive
--
compound: CCC12CCCC(=O)N1C(CO)C(c1ccccc1)O2 (stereo not given)
targetDesc: CCRF-CEM
label: inactive
--
compound: COC1=CC(=O)c2c(O)c3c(c(O)c2C1=O)C[C@](C)(O)C[C@@H]3O
targetDesc: CCRF-CEM
label: inactive
--
compound: O=C(Nc1ccc(C(F)(F)F)cc1)NC(F)(F)F
targetDesc: CCRF-CEM
label: inactive
--
compound: Clc1ccc(COc2ccccc2/C=N/c2c(-c3ccco3)nc3ccccn23)c(Cl)c1
targetDesc: CCRF-CEM
label: inactive
--
compound: COc1ccc(OC)c(NC(=O)c2c(Cl)c(Cl)c(Cl)c(Cl)c2-c2nc3ccccc3[nH]2)c1
targetDesc: CCRF-CEM
label: inactive
--
compound: CCC1(C)NN=c2s/c(=C/c3ccc(OC)cc3)c(=O)n2N1 (stereo not given)
targetDesc: CCRF-CEM
label: inactive
--
compound: CC(C)(C)c1cc[n+](C[n+]2ccc(C(C)(C)C)cc2)cc1
targetDesc: CCRF-CEM
label: inactive
--
compound: CCOC(=O)C1C(O)CC2c3ccccc3-c3ccccc3C21 (stereo not given)
targetDesc: CCRF-CEM
label: inactive
--
compound: CC1=C(C(=O)Nc2ccc([N+](=O)[O-])cc2)C(c2ccc(N(C)C)cc2)C(C(=O)Nc2ccc([N+](=O)[O-])cc2)=C(C)N1
targetDesc: CCRF-CEM
label: inactive
--
compound: O=C(/C=C/c1ccc(F)c(F)c1)OCCc1ccccc1
targetDesc: CCRF-CEM
label: inactive
--
compound: COC(=O)C(C(=O)C(=O)Nc1cccc(OC)c1)c1cnc2ccccc2n1 (stereo not given)
targetDesc: CCRF-CEM
label: inactive
--
compound: CC1(C)CC2(C)CC1CC2NC(=O)CCN1CCOCC1 (stereo not given)
targetDesc: CCRF-CEM
label: inactive
--
compound: O=C1C(Cl)C(c2ccc([N+](=O)[O-])cc2)N1n1cnc2ccccc2c1=O (stereo not given)
targetDesc: CCRF-CEM
label: inactive
